- System: cytochrome P-45017α
- Assay Info: Extraction of cytochrome P-45017α from bovine suprarenal cortex microsomes, and inactivation of the protein
- Design: unit not given here
- Particulars: 30 mins. at 4° C, proteins 4 mg/ml, detergent 15 mg/ml
Entries and their Inactivation rate values follow.

- Compound: "CCCCCCCCS[C@@H]1O[C@H](CO)[C@@H](O)[C@H](O)[C@H]1O [1-octyl-1-thio-β- -- D-glucopyranoside, 1-octyl-1-thio-β-D-glucopyranoside, reference compound]"
  Inactivation rate: 0
- Compound: "CCCCCCCSC1O[C@H](CO)[C@@H](O[C@@H]2O[C@H](CO)[C@H](O)[C@H](O)[C@H]2O)[C@H](O)[C@H]1O (stereo partly drawn) [1-heptyl-1-thio-α,β-lactoside]"
  Inactivation rate: 0
- Compound: "CCCCCCCCSC1O[C@H](CO)[C@@H](O[C@@H]2O[C@H](CO)[C@@H](O)[C@H](O)[C@H]2O)[C@H](O)[C@H]1O (stereo partly drawn) [1-octyl-1-thio-α,β-cellobioside]"
  Inactivation rate: 0
- Compound: "CCCCCCCCSC1O[C@H](CO)[C@@H](O[C@@H]2O[C@H](CO)[C@H](O)[C@H](O)[C@H]2O)[C@H](O)[C@H]1O (stereo partly drawn) [1-octyl-1-thio-α,β-lactoside]"
  Inactivation rate: 57
- Compound: "CCCCCCCCO[C@@H]1O[C@H](CO)[C@@H](O)[C@H](O)[C@H]1O [1-octyl-β-D-glucopyranoside, reference compound]"
  Inactivation rate: 20

###

- Test system: cytochrome P-45017α
- Assay Info: Extraction of cytochrome P-45017α from bovine suprarenal cortex microsomes, and inactivation of the protein
- Design: unit not given here
- Particulars: 30 mins. at 4° C, proteins 4 mg/ml, detergent 15 mg/ml
Is Extraction rate at least 60? Then criterion met. If not, criterion not met.

- Compound: "CCCCCCCSC1O[C@H](CO)[C@@H](O)[C@H](O)[C@H]1O (stereo partly drawn) [1-heptyl-1-thio-α,β-D-glucopyranoside]"
  Classification: "criterion met"
- Compound: "CCCCCCCSC1O[C@H](CO)[C@@H](O[C@@H]2O[C@H](CO)[C@H](O)[C@H](O)[C@H]2O)[C@H](O)[C@H]1O (stereo partly drawn) [1-heptyl-1-thio-α,β-lactoside]"
  Classification: "criterion not met"
- Compound: "CCCCCCCCSC1O[C@H](CO)[C@@H](O[C@@H]2O[C@H](CO)[C@H](O)[C@H](O)[C@H]2O)[C@H](O)[C@H]1O (stereo partly drawn) [1-octyl-1-thio-α,β-lactoside]"
  Classification: "criterion met"
- Compound: "CCCCCCCCSC1O[C@H](CO)[C@@H](O)[C@H](O)[C@H]1O (stereo partly drawn) [1-octyl-1-thio-α,β- -- D-glucopyranoside, 1-octyl-1-thio-α,β-D-glucopyranoside]"
  Classification: "criterion met"
- Compound: "CCCCCCCCS[C@@H]1O[C@H](CO)[C@@H](O)[C@H](O)[C@H]1O [1-octyl-1-thio-β- -- D-glucopyranoside, 1-octyl-1-thio-β-D-glucopyranoside, reference compound]"
  Classification: "criterion not met"
- Compound: "CCCCCCCCSC1O[C@H](CO)[C@@H](O[C@@H]2O[C@H](CO)[C@@H](O)[C@H](O)[C@H]2O)[C@H](O)[C@H]1O (stereo partly drawn) [1-octyl-1-thio-α,β-cellobioside]"
  Classification: "criterion met"
- Compound: "CCCCCCCCO[C@@H]1O[C@H](CO)[C@@H](O)[C@H](O)[C@H]1O [1-octyl-β-D-glucopyranoside, reference compound]"
  Classification: "criterion met"
- Compound: "CCCCCCCCSC1O[C@H](CO)[C@@H](O[C@H]2O[C@H](CO)[C@@H](O)[C@H](O)[C@H]2O)[C@H](O)[C@H]1O (stereo partly drawn) [1-octyl-1-thio-α,β-maltoside]"
  Classification: "criterion not met"

###

- Test system: cytochromes P-45011β and P-450scc
- Assay Info: Extraction of cytochromes P-45011β and P-450scc from mitochondrions of the bovine suprarenal cortex, and inactivation of the proteins
- Particulars: proteins 20 mg/ml, detergent 15 mg/ml, pH 7.4, after 1 h
Is Inactivation rate [after 1 h] at least 50%? Then True. If not, False.

- Molecule: "CCCCCCCCSC1O[C@H](CO)[C@@H](O)[C@H](O)[C@H]1O (stereo partly drawn) [1-octyl-1-thio-α,β- -- D-glucopyranoside, 1-octyl-1-thio-α,β-D-glucopyranoside]"
  Target: "cytochromes P-45011β and P-450scc"
  Classification: "True"
- Molecule: "CCCCCCCCSC1O[C@H](CO)[C@@H](O[C@@H]2O[C@H](CO)[C@H](O)[C@H](O)[C@H]2O)[C@H](O)[C@H]1O (stereo partly drawn) [1-octyl-1-thio-α,β-lactoside]"
  Target: "cytochromes P-45011β and P-450scc"
  Classification: "True"
- Molecule: "C[C@H](CCC(=O)O)[C@H]1CC[C@H]2[C@@H]3[C@H](O)C[C@@H]4C[C@H](O)CC[C@]4(C)[C@H]3C[C@H](O)[C@]12C [sodium cholate, reference compound]"
  Target: "cytochromes P-45011β and P-450scc"
  Classification: "True"
- Molecule: "CCCCCCCCS[C@@H]1O[C@H](CO)[C@@H](O)[C@H](O)[C@H]1O [1-octyl-1-thio-β- -- D-glucopyranoside, 1-octyl-1-thio-β-D-glucopyranoside, reference compound]"
  Target: "cytochromes P-45011β and P-450scc"
  Classification: "False"
- Molecule: "CCCCCCCCSC1O[C@H](CO)[C@@H](O[C@@H]2O[C@H](CO)[C@@H](O)[C@H](O)[C@H]2O)[C@H](O)[C@H]1O (stereo partly drawn) [1-octyl-1-thio-α,β-cellobioside]"
  Target: "cytochromes P-45011β and P-450scc"
  Classification: "True"
- Molecule: "CCCCCCCSC1O[C@H](CO)[C@@H](O[C@@H]2O[C@H](CO)[C@H](O)[C@H](O)[C@H]2O)[C@H](O)[C@H]1O (stereo partly drawn) [1-heptyl-1-thio-α,β-lactoside]"
  Target: "cytochromes P-45011β and P-450scc"
  Classification: "False"
- Molecule: "CCCCCCCCO[C@@H]1O[C@H](CO)[C@@H](O)[C@H](O)[C@H]1O [1-octyl-β-D-glucopyranoside, reference compound]"
  Target: "cytochromes P-45011β and P-450scc"
  Classification: "True"
- Molecule: "CCCCCCCCSC1O[C@H](CO)[C@@H](O[C@H]2O[C@H](CO)[C@@H](O)[C@H](O)[C@H]2O)[C@H](O)[C@H]1O (stereo partly drawn) [1-octyl-1-thio-α,β-maltoside]"
  Target: "cytochromes P-45011β and P-450scc"
  Classification: "False"
- Molecule: "CCCCCCCSC1O[C@H](CO)[C@@H](O)[C@H](O)[C@H]1O (stereo partly drawn) [1-heptyl-1-thio-α,β-D-glucopyranoside]"
  Target: "cytochromes P-45011β and P-450scc"
  Classification: "False"

###

- Test system: cytochromes P-45011β and P-450scc
- Assay Info: Extraction of cytochromes P-45011β and P-450scc from mitochondrions of the bovine suprarenal cortex, and inactivation of the proteins
- Particulars: proteins 20 mg/ml, detergent 15 mg/ml, pH 7.4, after 1 h
Entries and their Extraction rate [after 1 h] values follow.

- Compound: "CCCCCCCCSC1O[C@H](CO)[C@@H](O[C@@H]2O[C@H](CO)[C@@H](O)[C@H](O)[C@H]2O)[C@H](O)[C@H]1O (stereo partly drawn) [1-octyl-1-thio-α,β-cellobioside]"
  Extraction rate [after 1 h] (%): 0
- Compound: "CCCCCCCSC1O[C@H](CO)[C@@H](O[C@@H]2O[C@H](CO)[C@H](O)[C@H](O)[C@H]2O)[C@H](O)[C@H]1O (stereo partly drawn) [1-heptyl-1-thio-α,β-lactoside]"
  Extraction rate [after 1 h] (%): 0
- Compound: "CCCCCCCCSC1O[C@H](CO)[C@@H](O)[C@H](O)[C@H]1O (stereo partly drawn) [1-octyl-1-thio-α,β- -- D-glucopyranoside, 1-octyl-1-thio-α,β-D-glucopyranoside]"
  Extraction rate [after 1 h] (%): 43

###

Entries and their Inactivation rate values follow.
- Test system: cytochrome P-45017α
- Assay Info: Extraction of cytochrome P-45017α from bovine suprarenal cortex microsomes, and inactivation of the protein
- Design: unit not given here
- Particulars: 30 mins. at 4° C, proteins 4 mg/ml, detergent 15 mg/ml

- Compound: "CCCCCCCSC1O[C@H](CO)[C@@H](O)[C@H](O)[C@H]1O (stereo partly drawn) [1-heptyl-1-thio-α,β-D-glucopyranoside]"
  Inactivation rate: 0
- Compound: "CCCCCCCCSC1O[C@H](CO)[C@@H](O)[C@H](O)[C@H]1O (stereo partly drawn) [1-octyl-1-thio-α,β- -- D-glucopyranoside, 1-octyl-1-thio-α,β-D-glucopyranoside]"
  Inactivation rate: 0
- Compound: "CCCCCCCCSC1O[C@H](CO)[C@@H](O[C@H]2O[C@H](CO)[C@@H](O)[C@H](O)[C@H]2O)[C@H](O)[C@H]1O (stereo partly drawn) [1-octyl-1-thio-α,β-maltoside]"
  Inactivation rate: 0
